- tested_system: T1, human MSLN-FL-his protein (human, UniProt Q13421 296-580)
- T1 construct: made in HEK293E cells, purified on nickel column; also called hMSLN-FL-his; human MSLN full-length protein; not shown: His tag
- T1 sequence (Q13421 other isoform, or with tags, fused parts or gaps): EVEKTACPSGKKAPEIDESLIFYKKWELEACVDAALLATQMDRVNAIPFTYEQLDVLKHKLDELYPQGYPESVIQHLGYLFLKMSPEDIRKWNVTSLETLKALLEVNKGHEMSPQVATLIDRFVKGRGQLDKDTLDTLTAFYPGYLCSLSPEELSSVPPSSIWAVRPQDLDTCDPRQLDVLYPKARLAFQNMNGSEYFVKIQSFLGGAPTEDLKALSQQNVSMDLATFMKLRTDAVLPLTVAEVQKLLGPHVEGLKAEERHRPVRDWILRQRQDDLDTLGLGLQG
- experiment_summary: competitive ELISA; row F8-4.5; note: test concentration or dose not given here
Measured competition rate by item
experimental_readout: competition rate

1) S009-F8-18.9 (antibody, human IgG1, kappa, V domains shown, human-murine chimeric antibody, human IgG1/kappa constant regions) VH: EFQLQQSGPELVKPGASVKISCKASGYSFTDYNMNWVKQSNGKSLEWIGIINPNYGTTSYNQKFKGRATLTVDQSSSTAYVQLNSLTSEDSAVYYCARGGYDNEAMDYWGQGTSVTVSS VL: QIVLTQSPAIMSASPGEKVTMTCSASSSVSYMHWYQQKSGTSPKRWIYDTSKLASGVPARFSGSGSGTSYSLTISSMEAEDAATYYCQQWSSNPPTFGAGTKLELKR: 83.3%
2) S009-F8-12.13 (antibody, human IgG1, kappa, V domains shown, human-murine chimeric antibody, human IgG1/kappa constant regions) VH: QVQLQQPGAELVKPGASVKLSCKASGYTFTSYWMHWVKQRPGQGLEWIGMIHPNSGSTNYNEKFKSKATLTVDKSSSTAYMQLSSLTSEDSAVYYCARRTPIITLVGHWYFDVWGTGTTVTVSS VL: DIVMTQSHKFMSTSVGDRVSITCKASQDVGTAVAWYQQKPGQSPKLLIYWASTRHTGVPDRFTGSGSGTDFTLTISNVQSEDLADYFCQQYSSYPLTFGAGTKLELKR: 88.2%
3) S009-F8-5.15 (antibody, human IgG1, kappa, V domains shown, human-murine chimeric antibody, human IgG1/kappa constant regions) VH: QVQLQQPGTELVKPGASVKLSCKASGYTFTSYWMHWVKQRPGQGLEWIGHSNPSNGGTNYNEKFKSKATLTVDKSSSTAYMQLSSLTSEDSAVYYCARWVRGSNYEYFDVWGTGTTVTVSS VL: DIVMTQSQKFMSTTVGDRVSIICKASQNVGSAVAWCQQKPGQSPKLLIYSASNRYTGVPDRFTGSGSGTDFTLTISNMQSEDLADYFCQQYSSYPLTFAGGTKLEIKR: 29.6%
